Conditions: 298.15 K; 101.33 kPa; Liquid
READOUT NAME: mass density (kg/m3)
Give the value in kg/m3 but do not write kg/m3 after it.

// worked examples, mass density included
CC(C)CO :: 797.83
Cc1cc(C)cc(C)c1 :: 861.03
Cc1ccc(C)c(C)c1 :: 871.64
CC(C)(C)O :: 780.85

GET /value?item= CCC(C)O (stereo unspecified) &field=mass density returns 802.34

The reported mass density of the compound CCCCO was 805.8

* * *

Catalogue of surface tension liquid-gas values
Settings: 298.15 K, Pendant drop shape
Write the answer as a number in mN/m, unit excluded.

Sample records with surface tension liquid-gas:
Cc1ccc(C)c(C)c1 [1,2,4-trimethylbenzene] :: 29.25
Cc1cc(C)cc(C)c1 [1,3,5-trimethylbenzene] :: 28.09
CC(C)CO [2-methyl-1-propanol] :: 22.3
CCCCO [butan-1-ol] :: 24.18
CC(C)(C)O [2-methylpropan-2-ol] :: 20.13

Please look at the following compound next.
Summary for this compound, CCC(C)O (stereo unspecified) [butan-2-ol] : surface tension liquid-gas is 23.46
